These measurements were taken from ChEMBL document CHEMBL1240327.

test system: Saccharomyces cerevisiae; experiment: Inhibition of 50 nM rapamycin-mediated cytostatic effect in yeast BY4742 after 48 to 96 hrs; type: functional, organism-based
This section presents molecules with their documented EC50 values.
Enter your answer as a number in µM; do not include the unit.

molecule	recorded.value
O=C1C(Nc2ccccc2)=CC(=O)c2ncccc21	10.4

Now consider a different molecule.
-- ask Give EC50 (Saccharomyces cerevisiae) of the following molecule: S=C(S)OC1CC2CC1C1CCCC21 (configuration not stated)
-- reply 0.412
